- tested target: T1, Full length recombinant HBcAg (rHBcAg) encompassing residues 1-183 (hepatitis B virus, UniProt P03146 1-183)
- T1 construct: range 1-183; also called hepatitis B virus core antigen
- T1 sequence (P03146 whole entry, the tested form may be a part): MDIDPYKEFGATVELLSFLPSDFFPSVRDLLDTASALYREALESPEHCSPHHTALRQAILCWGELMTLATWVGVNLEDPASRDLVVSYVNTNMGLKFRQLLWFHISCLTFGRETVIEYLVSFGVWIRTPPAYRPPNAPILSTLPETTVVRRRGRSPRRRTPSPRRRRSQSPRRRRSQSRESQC
- assay protocol: competition EIA, peptide added to HBcAg before mAb 4-2 (competitor); OD of bound mAb
Record form. Attribute: OD at 490 nm. Fill in for each entry.
Report only the number, with the unit OD understood.

Kindly note the recorded OD at 490 nm for KPGASVKLSCKASGYIFTS [KPGASVKLSCKASGYIFTS (SEQ. ID. No. 39)] , which is 0.202

Given item GYIFTS [GYIFTS (SEQ. ID. No. 52)] , the value recorded as its OD at 490 nm is 0.903

Consider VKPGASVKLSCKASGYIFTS (also called Peptide # 2; Pept. #2) [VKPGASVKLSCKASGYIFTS (SEQ. ID. No. 5)] . Its measured OD at 490 nm is 0.453

Form field OD at 490 nm, entry SCKASGYIFTS [SCKASGYIFTS (SEQ. ID. No. 47)] : 0.784

GASVKLSCKASGYIFTS [GASVKLSCKASGYIFTS (SEQ. ID. No. 41)] has a reported OD at 490 nm of 0.205

The binder listed as ASGYIFTS [ASGYIFTS (SEQ. ID. No. 50)] shows OD at 490 nm equal to 0.92

Notebook: SGYIFTS [SGYIFTS (SEQ. ID. No. 51)] , OD at 490 nm read as 0.887

Per the records, this binder ( PGASVKLSCKASGYIFTS [PGASVKLSCKASGYIFTS (SEQ. ID. No. 40)] ) has OD at 490 nm equal to 0.182

Cited source: patent US20020058247A1
